Recorded values, source patent US8865894B2.

Exercise: state measured pIC50 for each of the compounds provided.
TEST_SYSTEM: mTOR (Mus musculus, UniProt Q9JLN9)
Construct: endogenous in cells; host or cells: TSC1-/- MEF (mouse embryo fibroblasts)
PROTOCOL: Cellular assay mTOR (phospho-T389 S6K1 SureFire in TSC1-/- MEF cells)
Format: cell-based
STATED_CONDITIONS: TSC1-/- MEF cells; read-out: mTOR S6K(T389)_TSC1ko/ IC50
Numbers only, as −log10 of the molar value.

> print(dat)
                                   compound  numeric.readout
1  Nc1ncc(-c2cc(N3C(=O)OC[C@@H]3CO)nc(N3CCOCC3)n2)c(C(F)(F)F)n1             5.91

// next entry
Ask | What reported pIC50 corresponds to CC1(CO)COC(=O)N1c1cc(-c2cnc(N)nc2C(F)(F)F)nc(N2CCOCC2)n1 (single isomer, unassigned) [Example 3A] on mTOR (Mus musculus, UniProt Q9JLN9)?
Reply | 5.80
